- Subject Of Test: T1, S100A4 (wild type, full-length) (UniProt P26447 1-101)
- T1 construct: S100A4, wild type, called full-length in the NMR experiment with M111; The tag and the vector are not described; also called Mts1; metastasin; source: E. coli BL21(DE3), purified (Ni-NTA, Superdex 75)
- Test Protocol: not stated; K0 of Scheme 1: binding in the absence of Ca2+; the experiment behind the limit is not told
- Measurement Setup: both partners purified
Exercise: state measured Kd for each of the binders provided.

Form field Kd, entry M200, C-terminal fragment of human NM-MHC IIA (residues Q1761-E1960) (domain or fragment, Parallel coiled-coil dimer. N-terminal … tag omitted. The paper prints V1913I, but by its own numbering (D1908-R1923, G1938, G1940, D1941) 1913 is E and the only adjacent Val is V1914, so …) QINTDLNLERSHAQKNENARQQLERQNKELKVKLQEMEGTVKSKYKASITALEAKIAQLEEQLDNETKERQAACKQVRRTEKKLKDVLLQVDDERRNAEQYKDQADKASTRLKQLKRQLEEAEEEAQRANASRRKLQRELEDATETADAMNREISSLKNKLRRGDLPFVVPRRMARKGAGDGSDEEVDGKADGAEAKPAE : > 100 µM

Form field Kd, entry Ac-ADAMNREVSSLKNKLRRGDLPFVVPRRMARKG-NH2 (peptide, UniProt P35579-1 1907-1938, looked up, nonmuscle myosin heavy chain IIA (NM-MHC IIA), human, residues A1907-G1938; source: synthetic peptide, bought: Peptide 2.0, Inc) [M32 myosin peptide (NM-MHC IIA A1907-G1938)] : > 100 µM

Where do these numbers come from? They come from paper PMC3025356.
